- Test system: OVCAR-5 ovarian
- ASSAY_INFO: NCI tumour cell line growth inhibition, 48 h
REPORTED_PROPERTY: TGI

>>> val("CN(C)c1ccc(/C=C/C(=O)c2ccc(Nc3nc(Nc4ccc(F)cc4)nc(Nc4ccc(Cl)cc4)n3)cc2)cc1")
"> 100 µM"
>>> val("Cc1ccc(-n2cc(-c3ccc(Cl)cc3)c3c(NNC(=S)NCc4ccccc4)ncnc32)cc1")
"48.6 µM"
>>> val("O=c1[nH]/c(=C/c2ccc(OCc3ccccc3)cn2)c(=O)[nH]/c1=C/c1cccnc1")
"> 100 µM"
>>> val("Nc1n[nH]c(=O)c2c1c(Br)cn2C1OC(CO)C(O)C1O (stereo not drawn)")
"44 µM"

TGI for C=CC(=O)N1CC[C@@H](Oc2nc(Nc3ccc(N4CCC(N5CCN(C)CC5)CC4)cc3)c(C(N)=O)nc2CC)C1 ? > 100 µM

Repeat with Oc1c(Br)cc(Br)c2cccnc12 49.5 µM
